Test system: Botrytis cinerea
Measurement description: in vitro-Test with fungal microorganisms, Method A (tables B1-B14)
Type: cell-based
Settings: Botrytis cinerea, 0.8 ppm; read-out: Efficacy
Measurement label: inhibition of growth at 0.8 ppm (%)

molecule=N#Cc1sc2c(=O)c3ccccc3c(=O)c=2sc1C#N system_under_test="Botrytis cinerea" recorded_value=0
molecule="O=C1C2CC=CCC2C(=O)N1SC(Cl)(Cl)Cl (stereo not shown)" system_under_test="Botrytis cinerea" recorded_value=0
molecule="CCCN(CC)CC1COC2(CCC(C(C)(C)C)CC2)O1 (stereo not shown)" system_under_test="Botrytis cinerea" recorded_value=0
molecule=O=C(NCCc1ncc(C(F)(F)F)cc1Cl)c1ccccc1C(F)(F)F system_under_test="Botrytis cinerea" recorded_value=69

---

Measurement description: Log P by HPLC on reversed phase columns (LC-UV), method [a]: acidic range, 0.1% formic acid in water / acetonitrile
Format: physicochemical
Settings: method [a], acidic range (0.1% formic acid); Table 17, compounds of formula (10)
chromatographic logP by entry:
Measurement label: chromatographic logP

substance_smiles=N/C(=N\O)c1cc(Cl)nnc1Oc1cccc(C2CC2)c1 measurement_label="chromatographic logP" recorded_value=2.19
substance_smiles=N/C(=N\O)c1cc(Cl)nnc1Oc1cccc(C2CC2)c1F measurement_label="chromatographic logP" recorded_value=2.34
substance_smiles=N/C(=N\O)c1cc(Cl)nnc1Oc1cccc(Cl)c1 measurement_label="chromatographic logP" recorded_value=2
substance_smiles=N/C(=N\O)c1cc(Cl)nnc1Oc1cccc(Br)c1F measurement_label="chromatographic logP" recorded_value=2.21
substance_smiles=N/C(=N\O)c1cc(Cl)nnc1Oc1cccc(C(F)F)c1F measurement_label="chromatographic logP" recorded_value=1.91

---

Test system: Alternaria alternata
Measurement description: in vitro-Test with fungal microorganisms, Method B (tables A13-A22)
Format: cell-based
Settings: 4 ppm
Measurement label: Efficacy (%)

compound=N#Cc1ccccc1NC(=O)c1snc(Cl)c1Cl recorded_value=0
compound="CS(=O)(=O)Oc1cccc(Cl)c1C1CC(c2csc(C3CCN(C(=O)Cn4nc(C(F)F)cc4C(F)F)CC3)n2)=NO1 (stereo not shown)" recorded_value=0
compound="COCC(=O)N(c1c(C)cccc1C)[C@H](C)C(=O)OC [(12.004) metalaxyl-M, metalaxyl-M (mefenoxam)]" recorded_value=10
compound=CCO[PH](=O)O recorded_value=0

---

Tested on: Botrytis cinerea
Measurement description: in vitro-Test with fungal microorganisms, Method A (tables B1-B14)
Type: cell-based
Settings: Botrytis cinerea, alone, 0.8 ppm; read-out: Efficacy %
Measurement label: inhibition of growth at 0.8 ppm

compound="O=C1C2CC=CCC2C(=O)N1SC(Cl)(Cl)Cl (centres unmarked) [(5.003) captan, captan]" recorded_value=0%
compound="N#Cc1sc2c(=O)c3ccccc3c(=O)c=2sc1C#N [(5.010) dithianon, dithianon]" recorded_value=0%
compound="Cc1cc(C)nc(Nc2ccccc2)n1 [(7.005) pyrimethanil, pyrimethanil]" recorded_value=100%
compound="O=C(NCCc1ncc(C(F)(F)F)cc1Cl)c1ccccc1C(F)(F)F [(2.005) fluopyram, Fluopyram]" recorded_value=65%
compound="CCCN(CC)CC1COC2(CCC(C(C)(C)C)CC2)O1 (centres unmarked) [(1.020) spiroxamine, spiroxamine]" recorded_value=0%

---

Test system: Botrytis cinerea
Measurement description: in vitro-Test with fungal microorganisms, Method A (tables B1-B14)
Type: cell-based
Settings: Botrytis cinerea, alone, 20.0 ppm; read-out: Efficacy %
Measurement label: inhibition of growth at 20 ppm (%)

molecule=N#Cc1sc2c(=O)c3ccccc3c(=O)c=2sc1C#N measurement_label="inhibition of growth at 20 ppm" recorded_value=99
molecule="O=C1C2CC=CCC2C(=O)N1SC(Cl)(Cl)Cl (stereo not drawn)" measurement_label="inhibition of growth at 20 ppm" recorded_value=100
molecule=O=C(NCCc1ncc(C(F)(F)F)cc1Cl)c1ccccc1C(F)(F)F measurement_label="inhibition of growth at 20 ppm" recorded_value=75
molecule=Cc1cc(C)nc(Nc2ccccc2)n1 measurement_label="inhibition of growth at 20 ppm" recorded_value=100
molecule="CCCN(CC)CC1COC2(CCC(C(C)(C)C)CC2)O1 (stereo not drawn)" measurement_label="inhibition of growth at 20 ppm" recorded_value=14
molecule=COc1cc(C)c(C(=O)c2c(OC)ccc(Br)c2C)c(OC)c1OC measurement_label="inhibition of growth at 20 ppm" recorded_value=0
